MEASURED_PARAMETER: logP

CCC(=O)OCC(=O)[C@@]1(O)CC[C@H]2[C@@H]3CCC4=CC(=O)CC[C@]4(C)[C@H]3[C@@H](O)C[C@@]21C : 2.8
CC(=O)OC1(C(=O)CO)CCC2C3CCC4=CC(=O)C=CC4(C)C3C(=O)CC21C (stereo not given) : 2.43
CC12CCC(=O)C=C1CCC1C3CCC(O)(C(=O)CO)C3(C)CC(=O)C12F (stereo not given) : 1.37
CCCC(=O)O[C@]1(C(=O)CCl)[C@@H](C)C[C@H]2[C@@H]3CCC4=CC(=O)C=C[C@]4(C)[C@@]3(F)[C@@H](O)C[C@@]21C : 3.63
CCCC(=O)OCC(=O)[C@@]1(O)CCC2C3CCC4=CC(=O)CC[C@]4(C)C3C(O)C[C@@]21C (stereo not given in full) : 2.91
CCC(=O)O[C@]1(C(C)=O)[C@@H](C)C[C@H]2[C@@H]3CCC4=CC(=O)C=C[C@]4(C)[C@@]3(F)C(=O)C[C@@]21C : 3.09
CCCCC(=O)OCC(=O)[C@@]1(O)CC[C@H]2[C@@H]3CCC4=CC(=O)CC[C@]4(C)[C@H]3[C@@H](O)C[C@@]21C : 3.62
CCCC(=O)O[C@]1(C(=O)CO)CC[C@H]2[C@@H]3CCC4=CC(=O)CC[C@]4(C)[C@H]3[C@@H](O)C[C@@]21C : 3.18
CCC(=O)O[C@]1(C(=O)CCl)[C@@H](C)C[C@H]2[C@@H]3CCC4=CC(=O)C=C[C@]4(C)[C@H]3[C@@H](O)C[C@@]21C : 3.34
CCC(=O)O[C@]1(C(=O)CCl)[C@@H](C)C[C@H]2[C@@H]3CCC4=CC(=O)C=C[C@]4(C)[C@@]3(F)[C@@H](O)C[C@@]21C : 3.18

(P) CCCCC(=O)O[C@]1(C(=O)CO)CC[C@H]2[C@@H]3CCC4=CC(=O)C=C[C@]4(C)[C@H]3[C@@H](O)C[C@@]21C
(Q) C[C@H]1C[C@H]2[C@@H]3CCC4=CC(=O)C=C[C@]4(C)[C@@]3(F)C(=O)C[C@]2(C)[C@@]1(O)C(=O)CCl
Exercise: Form: Entry with minimum logP (choose one): P / Q Use the label to indicate which entry you chose.
Key: Q
(Q: 2.61, P: 3.82)
